system: rat PTP1 (Rattus norvegicus, UniProt P20417)
Construct: a C-terminal truncation of rat PTP1 (amino acid residues 1-322); GST (N, cleaved yes); made in house; host or cells: E. coli strain TG-1 (pGEX-2T)
Sequence (P20417 1-322): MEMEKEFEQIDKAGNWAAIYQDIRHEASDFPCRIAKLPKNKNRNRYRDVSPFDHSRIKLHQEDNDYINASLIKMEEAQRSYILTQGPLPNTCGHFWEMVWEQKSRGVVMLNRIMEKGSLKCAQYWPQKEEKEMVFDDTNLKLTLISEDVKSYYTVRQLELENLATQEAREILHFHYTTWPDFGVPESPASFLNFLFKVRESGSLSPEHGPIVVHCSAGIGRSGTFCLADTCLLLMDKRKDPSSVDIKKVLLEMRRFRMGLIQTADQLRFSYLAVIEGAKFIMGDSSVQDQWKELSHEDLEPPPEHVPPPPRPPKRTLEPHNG
measurement_notes: PTP1 assay, pNPP hydrolysis (rate of change in A405)
Assay type: biochemical
condition_description: Conc 10 uM; pNPP hydrolysis; Table 1; read-out: PTP1 Inhib % Inhib
measure: inhibition at 10 µM (%)

molecule="O=C(O)CCC(=O)NC(Cc1ccc(OC(COO)COO)cc1)C(=O)NCCOc1ccccc1 (centres unmarked)" measured_number=13
molecule="CCCCCNC(=O)[C@H](Cc1ccc(OC(C(=O)O)C(=O)O)cc1)NC(=O)C(CC(=O)O)NC(=O)OCc1ccccc1 (some centres unmarked)" measured_number=51

I. CCCCCNC(=O)C(Cc1ccc(OC(COO)COO)cc1)NC(=O)C(Cc1ccc(C(=O)c2ccccc2)cc1)NC(=O)CCC(=O)O (centres unmarked) [drawing 133]
II. CCCCCNC(=O)[C@H](Cc1ccc(CC(C(=O)O)C(=O)O)cc1)NC(=O)CCC(=O)O
III. CCCCCNC(=O)C(Cc1ccc(OC(COO)COO)cc1)NC(=O)N(CC(=O)O)Cc1ccccc1 (centres unmarked)
Sort by inhibition at 10 µM, descending. Answer by writing out the labels in the requested order.
I, III, II
(I: 87%, III: 25%, II: 3%)

a. O=C(O)CCC(=O)N[C@@H](Cc1ccc(OC(C(=O)O)C(=O)O)cc1)C(=O)NCC1CCCCC1
b. CCCCCNC(=O)[C@H](Cc1ccc(OC(C(=O)O)C(=O)O)cc1)NC(=O)C(CC(=O)O)NC(=O)CCC(=O)O (some centres unmarked)
Form: Entry with minimum inhibition at 10 µM (choose one): a / b Select an item and report its label.
a

* * *

system: rat PTP1 (Rattus norvegicus, UniProt P20417)
Construct: a C-terminal truncation of rat PTP1 (amino acid residues 1-322); GST (N, cleaved yes); made in house; host or cells: E. coli strain TG-1 (pGEX-2T)
measurement_notes: PTP1 assay, pNPP hydrolysis (rate of change in A405)
Format: biochemical
condition_description: Conc 1 uM; pNPP hydrolysis; Table 2; read-out: PTP1 Inhib PTP1N. % Inhib
measure: inhibition at 1 µM (%)

// known answers, use as guide
compound="CCCCCNC(=O)C(Cc1ccc(OC(COO)C(=O)O)cc1)NC(=O)NC(Cc1ccc(OCc2ccccc2)cc1)C(=O)O (centres unmarked)" unit_name=% measured_number=8
compound="CCCCCNC(=O)C(Cc1ccc(OC(COO)COO)cc1)NC(=O)NCC(=O)NCC(=O)O (centres unmarked)" unit_name=% measured_number=12
compound="CCCCCNC(=O)C(Cc1ccc(OC(COO)COO)cc1)NC(=O)C(Cc1ccccc1)NC(=O)OC(C)(C)C (centres unmarked)" unit_name=% measured_number=9

1. CCCCCNC(=O)C(Cc1ccc(OC(COO)COO)cc1)NC(=O)C(Cc1ccc(OC)cc1)NC(=O)OC(C)(C)C (centres unmarked)
2. O=C(O)CCC(=O)NC(Cc1ccc(C(=O)c2ccccc2)cc1)C(=O)NCCc1ccc(OC(COO)COO)cc1 (centres unmarked)
Could you kindly indicate whether 1 or 2 has the higher inhibition at 1 µM value? Select an item and report its label.
1

* * *

system: human PTP1B (Homo sapiens, UniProt P18031)
Construct: human PTP1B (amino acid residues 1-321); made in house; host or cells: E. coli BL21(DE3)
Sequence (P18031 1-321): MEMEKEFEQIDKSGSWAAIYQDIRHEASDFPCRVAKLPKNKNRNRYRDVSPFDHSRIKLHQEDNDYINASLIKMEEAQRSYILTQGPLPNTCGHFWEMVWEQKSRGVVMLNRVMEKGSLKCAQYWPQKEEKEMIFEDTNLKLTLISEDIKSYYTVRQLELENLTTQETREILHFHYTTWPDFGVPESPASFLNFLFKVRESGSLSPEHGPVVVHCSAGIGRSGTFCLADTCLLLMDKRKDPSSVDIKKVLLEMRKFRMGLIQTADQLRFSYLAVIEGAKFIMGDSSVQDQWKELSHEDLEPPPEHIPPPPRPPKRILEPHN
measurement_notes: PTP1B assay, pNPP hydrolysis, assayed exactly as for PTP1
Format: biochemical
condition_description: Conc 100 uM, Table 2, read-out: PTP1B Inhib PTP1B. % Inhib
measure: inhibition at 100 µM (%)

compound="CCCCCNC(=O)C(Cc1ccc(OC(COO)COO)cc1)NC(=O)N1CCN(C(=O)OC(C)(C)C)CC1 (stereo not drawn)" measured_number=95
compound="CCCCCNC(=O)C(Cc1ccc(OC(COO)COO)cc1)NC(=O)C(COCc1ccccc1)NC(=O)OC(C)(C)C (stereo not drawn)" measured_number=71
compound="CCCCCNC(=O)C(Cc1ccc(OC(COO)COO)cc1)NC(=O)C(Cc1ccccc1)NC(=O)CCC(=O)O (stereo not drawn)" measured_number=99
compound="CCCCCNC(=O)C(Cc1ccc(OC(COO)COO)cc1)NC(=O)C(Cc1ccc2ccccc2c1)NC(=O)OC(C)(C)C (stereo not drawn)" measured_number=93
compound="CCCCCNC(=O)C(Cc1ccc(OC(COO)COO)cc1)NC(=O)C(CC(C)C)NC(=O)OC(C)(C)C (stereo not drawn)" measured_number=76
compound=CCCCCNC(=O)[C@H](Cc1ccc(OCC(=O)O)c(-c2nn[nH]n2)c1)NC(=O)[C@H](Cc1ccccc1)NC(=O)OC(C)(C)C measured_number=87

I. CCCCCNC(=O)C(Cc1ccc(OC(COO)COO)cc1)NC(=O)C(Cc1ccccc1)NC(=O)OC(C)(C)C (stereo not drawn)
II. CCCCCNC(=O)[C@H](Cc1ccc(OC(C(=O)O)C(=O)O)cc1)NC(=O)C(Cc1ccccc1)NC(=O)OC(C)(C)C (stereo partly drawn)
Could you kindly indicate whether I or II has the higher inhibition at 100 µM value? Select an item and report its label.
I
(I: 91%, II: 44%)

* * *

system: rat PTP1 (Rattus norvegicus, UniProt P20417)
Construct: a C-terminal truncation of rat PTP1 (amino acid residues 1-322); GST (N, cleaved yes); made in house; host or cells: E. coli strain TG-1 (pGEX-2T)
measurement_notes: PTP1 assay, pNPP hydrolysis (rate of change in A405)
Type: biochemical
condition_description: Conc 100 uM; pNPP hydrolysis; Table 2; read-out: PTP1 Inhib PTP1N. % Inhib
measure: inhibition at 100 µM (%)

molecule="CCCCCNC(=O)C(Cc1ccc(OC(COO)C(=O)O)cc1)NC(=O)NC(Cc1ccc(OCc2ccccc2)cc1)C(=O)O (stereo not shown)" unit_name=% measured_number=96
molecule="CCCCCNC(=O)C(Cc1ccc(OC(COO)COO)cc1)NC(=O)C(Cc1ccc(OCc2ccccc2)cc1)NC(=O)CCC(=O)O (stereo not shown)" unit_name=% measured_number=98
molecule="CCCCCNC(=O)C(Cc1ccc(OC(COO)COO)cc1)NC(=O)C(Cc1ccccc1)NC(=O)CCC(=O)O (stereo not shown)" unit_name=% measured_number=97
molecule="CCCCCNC(=O)C(Cc1ccc(OC(COO)COO)cc1)NC(=O)C(Cc1ccc(OCc2c(Cl)cccc2Cl)cc1)NC(=O)CCC(=O)O (stereo not shown)" unit_name=% measured_number=98

* * *

system: rat PTP1 (Rattus norvegicus)
Construct: a C-terminal truncation of rat PTP1 (amino acid residues 1-322); GST (N, cleaved yes); made in house; host or cells: E. coli strain TG-1 (pGEX-2T)
measurement_notes: PTP1 assay, pNPP hydrolysis (rate of change in A405)
Type: biochemical
condition_description: Conc 1 uM; pNPP hydrolysis; Table 1; read-out: PTP1 Inhib % Inhib
measure: inhibition at 1 µM (%)

// known answers, use as guide
molecule="O=C(O)CCC(=O)NC(Cc1ccc(OC(COO)COO)cc1)C(=O)NCc1ccc(C(=O)O)cc1 (stereo not shown)" system="rat PTP1 (Rattus norvegicus)" unit_name=% measured_number=3
molecule=CCCCCNC(=O)[C@H](Cc1ccc(OC(C(=O)O)C(=O)O)cc1)NC(=O)[C@H](CCC(=O)O)NC(=O)OC(C)(C)C system="rat PTP1 (Rattus norvegicus)" unit_name=% measured_number=5
molecule="CCCCCNC(=O)[C@H](Cc1ccc(OC(C(=O)O)C(=O)O)cc1)NC(=O)C(CC(=O)O)NC(=O)CCC(=O)O (stereo partly shown)" system="rat PTP1 (Rattus norvegicus)" unit_name=% measured_number=27
molecule=CCCCCNC(=O)[C@H](Cc1ccc(C=C(C(=O)O)C(=O)O)cc1)NC(=O)CCC(=O)O system="rat PTP1 (Rattus norvegicus)" unit_name=% measured_number=3
molecule=CCCCCNC(=O)[C@H](Cc1ccc(OC(C(=O)O)C(=O)O)cc1)NC(=O)[C@H](CCC(=O)O)NC(=O)CCC(=O)O system="rat PTP1 (Rattus norvegicus)" unit_name=% measured_number=25
molecule=CCCCCNC(=O)[C@H](Cc1ccc(OC(C(=O)O)C(=O)O)cc1)NC(=O)C(CC(=O)O)CC(=O)O system="rat PTP1 (Rattus norvegicus)" unit_name=% measured_number=1

a. CCCCCCCCCCNC(=O)C(Cc1ccc(OC(COO)COO)cc1)NC(=O)CCC(=O)O (stereo not shown)
b. CCCCCNC(=O)[C@H](Cc1ccc(OC(C(=O)O)C(=O)O)cc1)NC(=O)C1C(C(=O)O)[C@@H]2CC[C@@H]1C2 (stereo partly shown)
Form: Entry with minimum inhibition at 1 µM (choose one): a / b Select an item and report its label.
b

P. CCCCCNC(=O)C(Cc1ccc(OC(COO)COO)cc1)NC(=O)N(CC(=O)O)Cc1ccccc1 (stereo not shown)
Q. O=C(O)CCC(=O)N[C@@H](Cc1ccc(OC(C(=O)O)C(=O)O)cc1)C(=O)NCCCn1ccnc1
R. CCCCCNC(=O)[C@H](Cc1ccc(OC(C(=O)O)C(=O)O)cc1)NC(=O)C(CC(=O)O)NC(=O)OCc1ccccc1 (stereo partly shown)
Sort by inhibition at 1 µM, descending. Answer by writing out the labels in the requested order.
R, P, Q
(R: 10%, P: 3%, Q: 2%)

P. O=C(O)CCC(=O)NC(Cc1ccc(OC(COO)COO)cc1)C(=O)NCc1ccc(C(F)(F)F)cc1 (stereo not shown)
Q. CCCCCNC(=O)C(Cc1ccc(OC(COO)COO)cc1)NC(=O)NCCCCCC(=O)O (stereo not shown)
Form: Entry with minimum inhibition at 1 µM (choose one): P / Q Select an item and report its label.
P
